# credit: patent US20260242478A1

Each item that follows carries a reported Phage binding ELISA signal, Anti-PSMA Fab in presence of PSMA.
- Assay system: T1, PSMA Fab (006 PSMA Fab) (biotinylated for capture on neutravidin plates (site not stated))
- T1 construct: also called Anti-PSMA Fab; anti-PSMA Fab
- Assay details: phage ELISA as above, wells pre-incubated with PSMA antigen as competitor
Where no end group is shown, it is not given here.
# output: bare number, no unit

The following binders have reported results that may help.
EFQMCVPEWMCTGL (Peptide-180 library clone, tested as clonal M13 phage displaying the peptide fused to pIII) [Phage-3276]; 0.0838
GGVLCQPAWMCIGF (Peptide-180 library clone, tested as clonal M13 phage displaying the peptide fused to pIII) [Phage-3271]; 0.0804
SMGLCKPPWMCAGF (not fully specified; cysteine pairing not given here, Peptide-180 library clone, tested as clonal M13 phage displaying the peptide fused to pIII) [Phage-3273]; 0.0756

Proceeding to the next binder to report its Phage binding ELISA signal, Anti-PSMA Fab in presence of PSMA.
**Query** What value of Phage binding ELISA signal, Anti-PSMA Fab in presence of PSMA has been reported for the following binder? VEVKCVPEWMCTGF (Peptide-180 library clone, tested as clonal M13 phage displaying the peptide fused to pIII) [Phage-3268]
**Result** 0.0868
